Biological target: hTDO2 (Homo sapiens, UniProt P48775)
Construct: endogenous in cells
Sequence (P48775 whole entry): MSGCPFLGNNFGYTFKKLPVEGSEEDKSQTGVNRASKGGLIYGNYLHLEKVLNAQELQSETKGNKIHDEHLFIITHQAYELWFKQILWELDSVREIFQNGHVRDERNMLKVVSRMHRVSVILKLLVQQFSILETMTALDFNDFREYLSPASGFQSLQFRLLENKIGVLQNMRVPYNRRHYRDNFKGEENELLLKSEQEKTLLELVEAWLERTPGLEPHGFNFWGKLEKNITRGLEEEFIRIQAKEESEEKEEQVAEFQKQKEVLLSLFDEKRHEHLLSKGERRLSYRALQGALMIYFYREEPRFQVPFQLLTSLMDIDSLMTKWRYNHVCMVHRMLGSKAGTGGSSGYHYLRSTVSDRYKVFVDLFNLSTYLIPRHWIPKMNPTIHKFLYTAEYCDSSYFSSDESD
Assay: Cellular assay for TDO2 activity determination in A172 cells
Conditions: human glioblastoma A172 cells naturally expressing hTDO2; overnight incubation; kynurenine by absorbance at 480 nm
# key: entry, value: IC50

>  <COMPOUND>
CC1c2cc(-c3c[nH]c4cc(F)ccc34)ccc2S(=O)(=O)N1C1CCNCC1 (single isomer, unassigned; (+)) [Example 52]

>  <READOUT_UNIT>
nM

>  <IC50>
563

$$$$
>  <COMPOUND>
CNC(=O)C1NS(=O)(=O)c2ccc(-c3c[nH]c4cc(F)ccc34)cc21 (single isomer, unassigned; (+)) [Example 18]

>  <READOUT_UNIT>
nM

>  <IC50>
5000

$$$$
>  <COMPOUND>
O=S1(=O)c2ccc(-c3c[nH]c4cc(F)ccc34)cc2C(CO)N1CCO (single isomer, unassigned; (-)) [Example 132]

>  <READOUT_UNIT>
nM

>  <IC50>
81

$$$$
>  <COMPOUND>
O=S1(=O)NC(C2CC2)c2cc(-c3c[nH]c4cc(F)ccc34)ccc21 (single isomer, unassigned; (-)) [Example 11]

>  <READOUT_UNIT>
nM

>  <IC50>
103

$$$$
>  <COMPOUND>
CC1c2cc(-c3c[nH]c4cc(F)ccc34)ccc2S(=O)(=O)N1CC(=O)N(C)C (single isomer, unassigned; (+)) [Example 114]

>  <READOUT_UNIT>
nM

>  <IC50>
239

$$$$
>  <COMPOUND>
Cc1cc(O)n(CCN2C(C)c3cc(-c4c[nH]c5cc(F)ccc45)ccc3S2(=O)=O)n1 (single isomer, unassigned; (-)) [Example 68]

>  <READOUT_UNIT>
nM

>  <IC50>
3460

$$$$

----------
Target: hTDO2 (Homo sapiens, UniProt P48775)
Construct: endogenous in cells
Experiment: Cellular assay for TDO2 activity determination in A172 cells
Conditions: human glioblastoma A172 cells naturally expressing hTDO2; overnight incubation; kynurenine by absorbance at 480 nm
pIC50: −log10 of the molar value.
Given measured pIC50, output 1 (yes) if it is greater than or equal to 7 and 0 (no) if not.

>  <COMPOUND>
CNC(=O)C(C)N1C(C)c2cc(-c3c[nH]c4cc(F)ccc34)ccc2S1(=O)=O (single isomer, unassigned) [Example 147]

>  <CLASSIFICATION>
1 (yes)

$$$$
>  <COMPOUND>
NCC1NS(=O)(=O)c2ccc(-c3c[nH]c4cc(F)ccc34)cc21 (single isomer, unassigned; (-)) [Example 20]

>  <CLASSIFICATION>
0 (no)

$$$$
>  <COMPOUND>
CNC(=O)C(CN1C(C)c2cc(-c3c[nH]c4cc(F)ccc34)ccc2S1(=O)=O)OC (single isomer, unassigned; (+)) [Example 107]

>  <CLASSIFICATION>
0 (no)

$$$$
>  <COMPOUND>
CC1c2cc(-c3c[nH]c4cc(F)ccc34)ccc2S(=O)(=O)N1CC1(C)COC(=O)N1 (single isomer, unassigned; (+)) [Example 89]

>  <CLASSIFICATION>
1 (yes)

$$$$
>  <COMPOUND>
CC1c2cc(-c3c[nH]c4cc(F)ccc34)ccc2S(=O)(=O)N1CC(=O)N(C)C (single isomer, unassigned; (-)) [Example 113]

>  <CLASSIFICATION>
1 (yes)

$$$$
>  <COMPOUND>
CC1c2cc(-c3c[nH]c4cc(F)ccc34)ccc2S(=O)(=O)N1CC[S+](C)[O-] (single isomer, unassigned; (-)) [Example 56]

>  <CLASSIFICATION>
0 (no)

$$$$
>  <COMPOUND>
CC(=O)N1CCC(N2C(C)c3cc(-c4c[nH]c5cc(F)ccc45)ccc3S2(=O)=O)CC1 (single isomer, unassigned; (+)) [Example 71]

>  <CLASSIFICATION>
0 (no)

$$$$
>  <COMPOUND>
CNC(=O)C1NS(=O)(=O)c2ccc(-c3c[nH]c4cc(F)ccc34)cc21 (single isomer, unassigned; (-)) [Example 17]

>  <CLASSIFICATION>
0 (no)

$$$$
